Data credit: ChEMBL document CHEMBL1201861

tested on: HT-1080; test: cells; format: functional, cell-based, Homo sapiens; details: Homo sapiens, HT-1080
Description: SANGER: Inhibition of human HT-1080 cell growth in a cell viability assay.
observable: IC50

Data request: For the compound C=CCc1cccc(/C=N/NC(=O)CN2CCN(Cc3ccccc3)CC2)c1O , what IC50 is on record?
Data returned: > 2.56 µM

Data request: // query: O=C1N=C(NCc2cccs2)S/C1=C\c1ccc2ncccc2c1
Data returned: > 5 µM

Data request: // query: C[C@]1(O)C[C@@H](c2nc(-c3ccc4ccc(-c5ccccc5)nc4c3)c3c(N)nccn32)C1
Data returned: > 2.56 µM

Data request: // query: Cc1ccc(Nc2nccc(N(C)c3ccc4c(C)n(C)nc4c3)n2)cc1S(N)(=O)=O
Data returned: > 8 µM

Data request: // query: CN(C)C/C=C/C(=O)Nc1cc2c(Nc3ccc(F)c(Cl)c3)ncnc2cc1O[C@H]1CCOC1
Data returned: > 0.5 µM

Data request: // query: Cn1cncc1[C@@](N)(c1ccc(Cl)cc1)c1ccc2c(c1)c(-c1cccc(Cl)c1)cc(=O)n2C
Data returned: 10.3 µM

Data request: // query: CC(=O)O[C@@H]1[C@@H](OC(C)=O)[C@@H](O)[C@H](Oc2c(-c3ccc(O)cc3)oc3cc(O)cc(O)c3c2=O)O[C@H]1C
Data returned: > 10 µM

Data request: // query: COc1ccc(-c2ccc3c(N4CCOC[C@@H]4C)nc(N4CCOC[C@@H]4C)nc3n2)cc1CO
Data returned: 0.525 µM

----------
test system: BB30-HNC; test: cells; type: functional, cell-based, Homo sapiens; settings: Homo sapiens, BB30-HNC;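 further: growth inhibition of the cultured cell line, read out by a cell viability assay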
Description: SANGER: Inhibition of human BB30-HNC cell growth in a cell viability assay.
Field: IC50. Provide a value for each of the molecules that follow.

Data request: For the molecule COc1ccc(-c2ccc3c(N4CCOC[C@@H]4C)nc(N4CCOC[C@@H]4C)nc3n2)cc1CO , what IC50 is on record?
Data returned: 1860 nM

Data request: // query: CCOc1nc(NC(=O)Cc2cc(OC)ccc2OC)cc(N)c1C#N
Data returned: > 10000 nM

Data request: // query: Cc1cc([C@@H](C)Nc2ccccc2C(=O)O)c2nc(N3CCOCC3)cc(=O)n2c1
Data returned: 4890 nM

Data request: // query: CN(Cc1cnc2nc(N)nc(N)c2n1)c1ccc(C(=O)N[C@@H](CCC(=O)O)C(=O)O)cc1 [METHOTREXATE]
Data returned: 94.3 nM

Data request: // query: Cc1cc(Nc2cc(N3CCN(C)CC3)nc(Sc3ccc(NC(=O)C4CC4)cc3)n2)n[nH]1
Data returned: 226 nM

Data request: // query: O=C(/C=C/c1ccccc1)NC(NC(=S)Nc1cccc2cccnc12)C(Cl)(Cl)Cl (stereo not given)
Data returned: > 16000 nM

Data request: // query: Cc1ccc(Nc2nccc(N(C)c3ccc4c(C)n(C)nc4c3)n2)cc1S(N)(=O)=O
Data returned: > 8000 nM

Data request: // query: COc1ccc(C2=N[C@@H](c3ccc(Cl)cc3)[C@@H](c3ccc(Cl)cc3)N2C(=O)N2CCNC(=O)C2)c(OC(C)C)c1
Data returned: > 8000 nM

Data request: // query: C[C@]1(O)C[C@@H](c2nc(-c3ccc4ccc(-c5ccccc5)nc4c3)c3c(N)nccn32)C1
Data returned: > 2560 nM

Data request: // query: CS(=O)(=O)CCNCc1ccc(-c2ccc3ncnc(Nc4ccc(OCc5cccc(F)c5)c(Cl)c4)c3c2)o1
Data returned: 247 nM

Data request: // query: O=C1N=C(NCc2cccs2)S/C1=C\c1ccc2ncccc2c1
Data returned: > 5000 nM

Data request: // query: C=CCNC1=C2C[C@@H](C)C[C@H](OC)[C@H](O)[C@@H](C)/C=C(\C)[C@H](OC(N)=O)[C@@H](OC)/C=C\C=C(/C)C(=O)NC(=CC1=O)C2=O
Data returned: 173 nM

Data request: // query: CN(C)C/C=C/C(=O)Nc1cc2c(Nc3ccc(F)c(Cl)c3)ncnc2cc1O[C@H]1CCOC1
Data returned: 166 nM

Data request: // query: CCc1nc(N)nc(N)c1-c1ccc(Cl)cc1
Data returned: > 20000 nM

Data request: // query: Nc1ccn([C@@H]2O[C@H](CO)[C@@H](O)[C@@H]2O)c(=O)n1
Data returned: > 2000 nM

----------
tested on: NB5; test: cells; assay type: functional, cell-based, Homo sapiens; details: Homo sapiens, NB5;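 further: growth inhibition of NB5 cells, read out as cell viability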
Description: SANGER: Inhibition of human NB5 cell growth in a cell viability assay.
pIC50: −log10 of the molar value.
Field: pIC50. Provide a value for each of the compounds that follow.

Data request: For the compound COc1cc([C@@H]2c3cc4c(cc3[C@@H](O[C@@H]3O[C@@H]5CO[C@@H](C)O[C@H]5[C@H](O)[C@H]3O)[C@H]3COC(=O)[C@H]23)OCO4)cc(OC)c1O [ETOPOSIDE] , what pIC50 is on record?
Data returned: < 4.80

Data request: // query: CCC(=O)N1CCN(c2ccc(-n3c(=O)ccc4cnc5ccc(-c6cnc7ccccc7c6)cc5c43)cc2C(F)(F)F)CC1 [TORIN1]
Data returned: 7.02

Data request: // query: CNC(=O)c1cc(Oc2ccc(NC(=O)Nc3ccc(Cl)c(C(F)(F)F)c3)cc2)ccn1 [SORAFENIB]
Data returned: < 5.40

----------
Field: pIC50. Provide a value for each of the compounds that follow.
test system: DB; test: cells; assay type: functional, cell-based; conditions: Homo sapiens
Description: SANGER: Inhibition of human DB cell growth in a cell viability assay.
pIC50: −log10 of the molar value.

Data request: For the compound C=C1C(=O)O[C@@H]2C3O[C@]3(C)CC/C=C(\C)CC[C@@H]12 (stereo partly drawn) , what pIC50 is on record?
Data returned: < 5.30

Data request: // query: CC1=C2C[C@H]3[C@@H](CC=C4C[C@@H](O)CC[C@@]43C)[C@@H]2CC[C@]12O[C@@H]1C[C@H](C)CN[C@H]1[C@H]2C
Data returned: < 4.80

Data request: // query: COc1ccc(-c2ccc3c(N4CCOC[C@@H]4C)nc(N4CCOC[C@@H]4C)nc3n2)cc1CO
Data returned: 6.30

Data request: // query: COc1ccc(C2=N[C@@H](c3ccc(Cl)cc3)[C@@H](c3ccc(Cl)cc3)N2C(=O)N2CCNC(=O)C2)c(OC(C)C)c1
Data returned: < 5.10

Data request: // query: CS(=O)(=O)CCNCc1ccc(-c2ccc3ncnc(Nc4ccc(OCc5cccc(F)c5)c(Cl)c4)c3c2)o1
Data returned: < 5.70

Data request: // query: O=C1N=C(NCc2cccs2)S/C1=C\c1ccc2ncccc2c1
Data returned: < 5.30

Data request: // query: Cc1ccc(Nc2nccc(N(C)c3ccc4c(C)n(C)nc4c3)n2)cc1S(N)(=O)=O
Data returned: < 5.10

Data request: // query: CO[C@H]1C[C@@H]2CC[C@@H](C)[C@@](O)(O2)C(=O)C(=O)N2CCCC[C@H]2C(=O)O[C@H]([C@H](C)C[C@@H]2CC[C@@H](O)[C@H](OC)C2)CC(=O)[C@H](C)/C=C(\C)[C@@H](O)[C@@H](OC)C(=O)[C@H](C)C[C@H](C)/C=C/C=C/C=C/1C
Data returned: < 7.00

----------
system: KNS-81-FD; assay: cells; type: functional, cell-based, Homo sapiens; settings: Homo sapiens, KNS-81-FD;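 further: growth inhibition of KNS-81-FD cells, read out with a cell viability assay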
Description: SANGER: Inhibition of human KNS-81-FD cell growth in a cell viability assay.
pIC50: −log10 of the molar value.
Field: pIC50. Provide a value for each of the compounds that follow.

Data request: For the compound Cn1cc(C2=C(c3ccc(Cl)cc3Cl)C(=O)NC2=O)c2ccccc21 , what pIC50 is on record?
Data returned: < 5.00

Data request: // query: C[C@]1(O)C[C@@H](c2nc(-c3ccc4ccc(-c5ccccc5)nc4c3)c3c(N)nccn32)C1
Data returned: < 5.59

Data request: // query: O=C(NOCC1CC1)c1ccc(F)c(F)c1Nc1ccc(I)cc1Cl
Data returned: < 5.00

Data request: // query: CC1=C2C[C@H]3[C@@H](CC=C4C[C@@H](O)CC[C@@]43C)[C@@H]2CC[C@]12O[C@@H]1C[C@H](C)CN[C@H]1[C@H]2C
Data returned: < 4.80

Data request: // query: CC(=O)O[C@@]12CO[C@@H]1C[C@H](O)[C@@]1(C)C(=O)[C@H](O)C3=C(C)[C@@H](OC(=O)[C@H](O)[C@@H](NC(=O)OC(C)(C)C)c4ccccc4)C[C@@](O)([C@@H](OC(=O)c4ccccc4)[C@H]21)C3(C)C
Data returned: 8.40

Data request: // query: CN(c1ncccc1CNc1nc(Nc2ccc3c(c2)CC(=O)N3)ncc1C(F)(F)F)S(C)(=O)=O
Data returned: < 5.59

Data request: // query: COc1ccc(-c2ccc3c(N4CCOC[C@@H]4C)nc(N4CCOC[C@@H]4C)nc3n2)cc1CO
Data returned: 5.72

Data request: // query: O=c1cc(-c2cccc3c2Sc2ccccc2S3)oc(N2CCOCC2)c1
Data returned: < 5.00

Data request: // query: Cn1cncc1[C@@](N)(c1ccc(Cl)cc1)c1ccc2c(c1)c(-c1cccc(Cl)c1)cc(=O)n2C
Data returned: 4.95

Data request: // query: CN1CCN(CCOc2cc(OC3CCOCC3)c3c(Nc4c(Cl)ccc5c4OCO5)ncnc3c2)CC1
Data returned: < 5.70

Data request: // query: Nc1ccn([C@@H]2O[C@H](CO)[C@@H](O)[C@@H]2O)c(=O)n1
Data returned: < 5.70

Data request: // query: COc1cc(F)c(F)c(Nc2ccc(I)cc2F)c1NS(=O)(=O)C1(CC(O)CO)CC1 (configuration not stated)
Data returned: 5.62
